# assay-overview: Displacement of [125I]o-CRF from recombinant human CRF receptors expressed in Chinese Hamster Ovary (CHO) cell membranes
Log IC50 overview
Answer with a number only.

Here is how some compounds turned out for Log IC50.
{"columns": ["compound", "measured-result"],
 "data": [
  ["CCCC(CCC)N1CC2CCN(c3ccc(Cl)cc3Cl)c3nc(C)nc1c32 (stereo in doubt; 2ac)", -7.65],
  ["CCCC(CCC)N1CC2CCN(c3ccc(Cl)cc3Cl)c3nc(C)nc1c32 (stereo in doubt; 2af)", -7.89],
  ["CCC(CC)N1CC2CCN(c3ccc(Cl)cc3Cl)c3nc(C)nc1c32 (centres undefined)", -7.16],
  ["CCCC(CCC)N1CC2CCN(c3ccc(C(F)(F)F)cc3C(F)(F)F)c3nc(C)nc1c32 (stereo in doubt; 2ag)", -7.55],
  ["COCC(COC)N1CC2CCN(c3ccc(Cl)cc3Cl)c3nc(C)nc1c32 (centres undefined)", -5.9],
  ["CCCC(CCC)N1CCC2CN(c3ccc(C(F)(F)F)cc3C(F)(F)F)c3nc(C)nc1c32 (centres undefined)", -7.39]
]}

Query block: Tell me the measured Log IC50 of CCCC(CCC)N1CCC2CN(c3ccc(Cl)cc3Cl)c3nc(C)nc1c32 (centres undefined) , please.
Result block: -7.52

Query block: Tell me the measured Log IC50 of `COCC(COC)Nc1nc(C)nc2c(-c3ccc(Cl)cc3Cl)c(C)nn12` , please.
Result block: -7.42

Query block: Tell me the measured Log IC50 of CCCC(CCC)N1CC2CCN(c3ccc(C(F)(F)F)cc3C(F)(F)F)c3nc(C)nc1c32 (stereo in doubt; 2ah) , please.
Result block: -7.84

====

Kp at 1 h overview
# assay-overview: Brain/Plasma ratio level at 1 hr after a intravenous dose 0.5 mg/kg in rats
# Format: ADME, organism-based
# Set-up: dose 0.5 mg/kg, route intravenous
# condition-details: rat, read-out: Penetration

Here is how some compounds turned out for Kp at 1 h.
{"columns": ["compound", "Kp at 1 h"],
 "data": [
  ["CCCC(CCC)N1CCC2CN(c3ccc(Cl)cc3Cl)c3nc(C)nc1c32 (centres undefined)", 1.8],
  ["CCCC(CCC)n1cc2c3c(nc(C)nc31)N(c1ccc(C(F)(F)F)cc1C(F)(F)F)CC2", 1.3],
  ["CCCC(CCC)N1CC2CCN(c3ccc(C(F)(F)F)cc3C(F)(F)F)c3nc(C)nc1c32 (stereo in doubt; 2ad)", 1.1]
]}

Now turn to the next compound.
Query block: Tell me the measured Kp at 1 h of CCCC(CCC)N1CC2CCN(c3ccc(Cl)cc3Cl)c3nc(C)nc1c32 (stereo in doubt; 2ac) , please.
Result block: 2

====

Log IC50 overview
# assay-overview: Displacement of [125I]o-CRF from recombinant human CRF receptors expressed in Chinese Hamster Ovary (CHO) cell membranes

Here is how some molecules turned out for Log IC50.
{"columns": ["molecule", "Log IC50"],
 "data": [
  ["CCC(CC)n1cc2c3c(nc(C)nc31)N(c1ccc(C#N)cc1C)CC2", -7.57],
  ["CCCCN(CC)c1nc(C)nc2c1c(C)cn2-c1c(C)cc(C)cc1C [CP-154526]", -7.76],
  ["CCC(CC)n1cc2c3c(nc(C)nc31)N(c1ccc(C#N)cc1Cl)CC2", -7.21],
  ["CCCC(CCC)n1cc2c3c(nc(C)nc31)N(c1ccc(C#N)cc1C)CC2", -7.35],
  ["Cc1nc2c3c(n1)N(c1ccc(Cl)cc1Cl)CC3CCN2CC1CC1 (stereo not given)", -5.35]
]}

Query block: Tell me the measured Log IC50 of `CCCC(CCC)n1cc2c3c(nc(C)nc31)N(c1ccc(C(F)(F)F)cc1C(F)(F)F)CC2` , please.
Result block: -7.85

Query block: Tell me the measured Log IC50 of CCC(CC)N1CCC2CN(c3ccc(Cl)cc3Cl)c3nc(C)nc1c32 (stereo not given) , please.
Result block: -6.74

Query block: Tell me the measured Log IC50 of CCCC(CCC)N1CC2CCN(c3ccc(Cl)cc3Cl)c3nc(C)nc1c32 (stereo in doubt; 2ae) , please.
Result block: -7.96

Query block: Tell me the measured Log IC50 of `CCC(CC)n1cc2c3c(nc(C)nc31)N(c1ccc(C(F)(F)F)cc1C(F)(F)F)CC2` , please.
Result block: -7.58

Query block: Tell me the measured Log IC50 of CCCC(CCC)N1CC2CCN(c3ccc(C(F)(F)F)cc3C(F)(F)F)c3nc(C)nc1c32 (stereo in doubt; 2ad) , please.
Result block: -7.44
